# system-under-test: Alpha-2C adrenergic receptor (Homo sapiens)
# assay-procedure: compounds altering alpha2C-coupled GIRK flux – cell-based, HEK293 alpha2C/GIRK1/2, thallium flux, primary screen (AID 624);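 further: slope of fluorescence ratio to pre-addition baseline per second over 15 to 24 s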
# measurement-setup: thallium flux BTC fluorescence, at 10 µM, actives lie on both sides
Calls of active or inactive are those of the source.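 How the source made its calls: active means fluorescence slope after compound addition differing from the mean of all screened samples at 99.7% confidence, in either direction; inactive means the rest.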
Would you mind telling me the reported slope of each entry?

Query: So what slope did `O=S(=O)(c1ccc(-c2csc(-c3cccnc3)n2)cc1)N1CCCCC1` get with Alpha-2C adrenergic receptor (Homo sapiens)?
Reply: 0.0051 (inactive)

Query: Field entry: `Cc1cc(=O)n(-c2ccc3ccccc3n2)[nH]1`
Reply: 0.00622 (inactive)

Query: Field entry: `CC1CCN(CCc2nc3cc(NS(=O)(=O)c4ccc(F)cc4)ccc3n2C)CC1`
Reply: 0.00517 (inactive)

Query: Field entry: `CCOC(=O)N1CCC(NC(=O)c2ccc3c(c2)sc2nc(-c4cccc(OC)c4)cn23)CC1`
Reply: 0.00825 (inactive)

Query: Field entry: `COc1ccc(-c2nnc(SCC(=O)c3cc(C)n(Cc4cccs4)c3C)o2)cc1`
Reply: 0.00615 (inactive)

Query: Field entry: `CCN(CCCNC(=O)COc1cc(=O)n(CC)c2ccccc12)c1ccccc1`
Reply: 0.00565 (inactive)

Query: Field entry: `CCOc1ccc(Oc2nc(Nc3ccc(C)cc3)nc(N(C)C)n2)nn1`
Reply: 0.00543 (inactive)

Query: Field entry: `Cc1ccc(Cl)cc1N1CCN(C(=O)CN2C(=O)c3cccc4cccc2c34)CC1`
Reply: 0.0104 (active)

Query: Field entry: CC1CCCN(C(=O)c2cc(F)c(F)cc2Cl)C1 (stereo not given)
Reply: 0.00409 (inactive)

Query: Field entry: CCC1CCCCN1C(=O)C1CC(c2cc(Cl)c(OC)cc2OC)=NO1 (stereo not given)
Reply: 0.00725 (inactive)

----------
# assay-procedure: reduction of polyQ htt aggregates in cells – imaging, exon1htt(103Q)mCFP cells, high-content imaging, primary screen (AID 483);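 further: compound exposure lasted 3 days before fixation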
# measurement-setup: exon1htt(103Q)mCFP cell line, aggregate imaging, at 2 µM; stronger effect = higher value
property-measured: inhibition of aggregation (%)
Give just the numeric value; % need not be written.

Query: Returns the measured inhibition of aggregation for the input compound. Input: `CN(C1CCCCC1)S(=O)(=O)c1ccc(NC(=O)c2ccco2)cc1`
Reply: -6.6

Query: Field entry: `CCn1nc(C(=O)OCC(=O)N2CCc3ccccc32)c2ccccc2c1=O`
Reply: 4.1

Query: Field entry: `O=c1[nH]c(N2CCCCC2)nc2c1CCCC2`
Reply: 5.9

Query: Field entry: `COc1ccc(N=c2scc(-c3ccc(S(=O)(=O)N4CCOCC4)cc3)n2CCCO)cc1`
Reply: 23

Query: Field entry: `Cc1cccc(NC(=O)CSc2nnc(-c3cc(C)n(-c4ccccc4)c3C)o2)c1C`
Reply: -14.8

Query: Field entry: `Cc1nn(Cc2ccc(C(=O)NC3CCCCC3)o2)c(C)c1Br`
Reply: 24.1

Query: Field entry: `COc1ccccc1N(CN1CCCC1=O)C(=O)c1c(F)cccc1Cl`
Reply: 9.3

Query: Field entry: O=c1[nH]cnc2c1nc(SCc1ccccc1)n2C1OC(CO)C(O)C1O (stereo unspecified)
Reply: 10.4

Query: Field entry: `CCOC(=O)C1CCN(Cc2ccc(OC)c(C)c2OC)CC1`
Reply: -10.2

Query: Field entry: Cc1ccc(S(=O)(=O)N2C(=O)CCC2C(=O)Nc2ccc3c(c2)OCCO3)cc1 (stereo unspecified)
Reply: -9.4

Query: Field entry: COc1cc(C(=O)N2CCC(NC(=O)C(Cc3ccc(C)cc3)NC(C)=O)CC2)cc(OC)c1OC (stereo unspecified)
Reply: 22.1

Query: Field entry: `CCCN(Cc1cc2cc(C)ccc2[nH]c1=O)C(=O)c1cccc(OC)c1`
Reply: -3.9

Query: Field entry: `CCOC(=O)CCCOC(=O)c1ccc(S(=O)(=O)N(C)C)cc1`
Reply: 2.8

Query: Field entry: `O=C(OCc1ccccc1F)c1ccc2c(c1)OCCO2`
Reply: -14.1

Query: Field entry: `COc1cccc(CNC(=O)CCS(=O)(=O)c2cccc3nsnc23)c1`
Reply: -34.5

Query: Field entry: c1ccc2c(c1)CC(N1CCCCC1)c1ccccc1N2 (stereo unspecified)
Reply: 10.2

Query: Field entry: `Cc1ccc(-n2ncc3c(=O)[nH]c(SC(C)C)nc32)cc1`
Reply: 2.6

Query: Field entry: `C=CCNC(=O)c1cccc(Br)c1`
Reply: -3.3

Query: Field entry: COCCCNC(=O)Cn1cc2c(n1)CCC(C)C2 (stereo unspecified)
Reply: -6

Query: Field entry: CCOc1ccc(S(=O)(=O)NCC2CCCO2)c2cccnc12 (stereo unspecified)
Reply: -30.7

Query: Field entry: `Cc1ccc(CCNC(=O)C2CCN(S(=O)(=O)c3c(C)nn(C)c3C)CC2)cc1`
Reply: -21.9

Query: Field entry: `COc1ccc(-c2ccc(-c3noc(-c4cccs4)n3)c(OC)n2)cc1`
Reply: 20.7

Query: Field entry: CCCCCOC(=O)C1=C(C)N(C)C(=O)NC1c1cc(Br)c(O)c(OC)c1 (stereo unspecified)
Reply: -39.7

Query: Field entry: `COC(=O)c1ccccc1NC(=O)c1ccc(-c2ccccc2F)o1`
Reply: -24.1

Query: Field entry: `Cc1cc(C)n(CC(=O)O)n1`
Reply: -4.2

Query: Field entry: `CCN1CCN(c2ncnc3c2cnn3-c2ccc(C)cc2C)CC1`
Reply: -28.5

Query: Field entry: `C/C(Nc1cccc(F)c1)=C(/C#N)C(N)=O`
Reply: 1.6

Query: Field entry: COCCNC(=O)CC(NS(=O)(=O)c1ccc(NC(C)=O)cc1)C(C)C (stereo unspecified)
Reply: -1.2

Query: Field entry: COc1cc2c(c(OC)c1)C(c1ccncc1)CC(=O)N2 (stereo unspecified)
Reply: -25.7

Query: Field entry: `Cc1cc(=O)n2nc(N3CCC(C(=O)N4CCN(Cc5ccccc5)CC4)CC3)sc2n1`
Reply: -0.2

Query: Field entry: COCc1[nH]nc2c1C(c1cc(OC)c(O)c(OC)c1)C(C#N)=C(N)O2 (stereo unspecified)
Reply: -17

Query: Field entry: `O=C(c1ccccc1Cl)N1CCc2ccccc2C1`
Reply: 17.3

Query: Field entry: `COC(=O)c1ccccc1NC(=O)c1ccc(COc2ccccc2)o1`
Reply: 6.6

Query: Field entry: `Cn1cc(C(=O)c2ccc(F)cc2)cc1-c1nc2ccccc2n1C`
Reply: 23.1

Query: Field entry: COc1ccc(C2CC(c3ccccc3)Nc3nc(NC(=O)c4cccs4)nn32)cc1 (stereo unspecified)
Reply: -6.8

Query: Field entry: `C=CCNC(=O)CN(c1cccc(Br)c1)S(C)(=O)=O`
Reply: 13.9

Query: Field entry: `Cn1cnc2cc(NC(=O)c3ccc(Cl)cc3)ccc21`
Reply: 22.8

Query: Field entry: CCOC(=O)C1=C(NC#N)OC(C)=C(C)C1c1ccc(O)cc1 (stereo unspecified)
Reply: -12.7

Query: Field entry: `CCN(CC)S(=O)(=O)c1ccc2[nH]cc(C(=O)NCCC3=CCCCC3)c(=O)c2c1`
Reply: -4.1

Query: Field entry: O=C(C1CCCO1)N1CCN(Cc2nc3ccccc3c(=O)[nH]2)CC1 (stereo unspecified)
Reply: 14

Query: Field entry: `Cc1ccccc1-n1c(Cn2c(=O)sc3ccccc32)nnc1SCC(N)=O`
Reply: 4.1

Query: Field entry: `CC(C)CNc1oc(-c2ccc(F)cc2)nc1C#N`
Reply: -21

Query: Field entry: `Cc1cccc(OCC(=O)N2CCN(C(=O)Cc3ccccc3)CC2)c1`
Reply: 15.8

Query: Field entry: O=C(NC1CCCC1)C1CCCN(S(=O)(=O)c2cccc3cccnc23)C1 (stereo unspecified)
Reply: 3.4

Query: Field entry: CCc1ccc(N2CC34C=CC(O3)C(C(=O)OC)C4C2=O)cc1 (stereo unspecified)
Reply: 11.3

Query: Field entry: COC(=O)c1ccc2c(=O)n(CC3CCCO3)c(=S)[nH]c2c1 (stereo unspecified)
Reply: -9.1

----------
# assay-procedure: TLR3 IRF3 reporter activation blockers – cell-based, poly I:C stimulus, luciferase, 10K MLSCN set, primary screen (AID 602277)
# measurement-setup: HEK293-TLR3 RL24 IRF3 luciferase reporter, at 10 µM, stronger effect = higher value
Binary classification by inhibition, with 10% as an inclusive lower bound for MET; all other cases are NOT MET.

Query: In plain terms: is recorded inhibition at least 10% for `O=C(NCc1cccnc1)c1ccc2c(c1)OCO2` ?
Reply: NOT MET

Query: Field entry: `COc1ccc(-c2ccc(-c3noc(-c4cccs4)n3)c(OC)n2)cc1`
Reply: NOT MET

Query: Field entry: `CCCCOc1ccc(CSc2n[nH]c(C)n2)cc1`
Reply: NOT MET

Query: Field entry: `CCCc1nnc(SCC(=O)N2CCOCC2)n1Cc1ccco1`
Reply: MET

Query: Field entry: `COc1ccc(CCNc2nc(N3CCOCC3)nc(N3CCOCC3)n2)cc1OC`
Reply: MET

Query: Field entry: `CCOCCCn1c(=NC(C)=O)c(C(=O)OCC)cc2c(=O)n3ccccc3nc21`
Reply: NOT MET

Query: Field entry: `CC1(C)CC(=O)C(CC2=C(O)CC(C)(C)CC2=O)=C(O)C1`
Reply: MET

Query: Field entry: `CCOC(=O)c1cc2c(=O)n3cccc(C)c3nc2n(CCOC)c1=NC(=O)c1ccncc1`
Reply: MET

Query: Field entry: CCOC(=O)c1cc2sc(C)cc2n1C(C)C(=O)OCC (stereo unspecified)
Reply: MET

Query: Field entry: `Cc1nn(-c2ccc(F)cc2)c2sc(C(=O)O)cc12`
Reply: MET

Query: Field entry: `Fc1cccc(Nc2cc(-n3cccn3)ncn2)c1`
Reply: NOT MET
